Biological target: Adrenergic receptor alpha-1 (Rattus norvegicus) (UniProt P15823+P23944+P43140)
Experiment: Agonism at Alpha-1 adrenoceptor determined in rat anococcygeus preparation; Inactive.
Assay type: functional
The source made the active and inactive calls. The calls are words filed in the database; no cut-off is given here.
measure.name: Agonist potency

molecule	assay.value
c1ccc2c(c1)CC(C1=NCCN1)CO2 (stereo not drawn)	inactive
COc1ccc2c(c1)OC(C1=NCCN1)C2 (stereo not drawn)	inactive
CCC1(C2=NCCN2)Cc2ccccc2O1.Cl (stereo not drawn) [EFAROXAN HYDROCHLORIDE]	inactive

---

Target: Alpha-2 adrenergic receptor (Mus musculus, UniProt P30545+Q01338+Q01337)
Assay: Alpha-2 adrenergic receptor […] in mouse vas deferens relative to clonidine
Assay type: functional, tissue-based
measure.name: pA2
Answer using only a numeral; do not append any unit.

Worked examples follow.
compound	assay.value
Cc1cccc2c1OC(C1=NCCN1)C2.Cl (configuration not stated)	8.22
CCCC1(C2=NCCN2)Cc2ccccc2O1.Cl (configuration not stated)	8.63
CCC1(C2=NCCN2)Cc2ccccc2O1.Cl (configuration not stated) [EFAROXAN HYDROCHLORIDE]	8.32
Cl.Clc1ccc2c(c1)CC(C1=NCCN1)O2 (configuration not stated)	7.8
CCCCCC1(C2=NCCN2)Cc2ccccc2O1.Cl (configuration not stated)	7.97
Cl.c1ccc2c(c1)CC(C1=NCCN1)O2 (configuration not stated)	8.35

Param item: Cl.Clc1cccc2c1OC(C1=NCCN1)C2 (configuration not stated) ; param system: Alpha-2 adrenergic receptor (Mus musculus, UniProt P30545+Q01338+Q01337); output pA2: 7.64
